- assay-text: Cmax in C57BL/6 mouse at 100 mg/kg, po administered as single dose
- Type: ADME, organism-based
- Design: dose 100 mg/kg, route oral
- test-settings: in vivo
readout-type: Cmax (µM)
Your answer should be a plain number; it is taken to be in µM.

Q) Quick check: Cmax of COc1nc(Nc2cc(S(C)(=O)=O)ccc2N[C@@H](c2cccc(Cl)c2F)c2ncccc2F)nc(OC)n1 ?
A) 24

====

- assay-text: Intrinsic clearance in rat liver microsomes
- Format: ADME, Microsome
- test-settings: read-out: CLH
Measured microsomal CLint values are reported for all entries that follow.
Your answer should be a plain number; it is taken to be in µL/min/mg.

| smiles-entry | microsomal CLint (µL/min/mg) |
| --- | --- |
| CS(=O)(=O)c1ccc(N[C@H](c2ccccn2)c2cccc(Cl)c2F)c(Nc2ncccn2)c1 | 50 |

Kindly review the next compound as well.
Q) Quick check: microsomal CLint of CS(=O)(=O)c1ccc(N[C@@H](c2cccc(Cl)c2)c2ccccn2)c(Nc2ncccn2)c1 ?
A) 553

====

- assay-text: Drug concentration in C57BL/6 mouse blood at 300 mg/kg, po measured after 24 hrs
- Format: ADME, organism-based
- test-settings: read-out: Drug uptake
readout-type: concentration at 24 h

Q) Quick check: concentration at 24 h of COc1nc(Nc2cc(S(C)(=O)=O)ccc2N[C@@H](c2cccc3c2OC(F)(F)O3)c2ncccc2Cl)nc(N2CCNCC2)n1 ?
A) 4 to 8 µM

====

- measured-target: UniProt:Q8TEK3
- assay-text: Inhibition of DOT1L in human HeLa cells assessed as reduction in H3K79 dimethylation measured after 72 hrs by ELISA
- Format: cell-based
- Sequence (Q8TEK3 whole entry, looked up, the tested form may be a part): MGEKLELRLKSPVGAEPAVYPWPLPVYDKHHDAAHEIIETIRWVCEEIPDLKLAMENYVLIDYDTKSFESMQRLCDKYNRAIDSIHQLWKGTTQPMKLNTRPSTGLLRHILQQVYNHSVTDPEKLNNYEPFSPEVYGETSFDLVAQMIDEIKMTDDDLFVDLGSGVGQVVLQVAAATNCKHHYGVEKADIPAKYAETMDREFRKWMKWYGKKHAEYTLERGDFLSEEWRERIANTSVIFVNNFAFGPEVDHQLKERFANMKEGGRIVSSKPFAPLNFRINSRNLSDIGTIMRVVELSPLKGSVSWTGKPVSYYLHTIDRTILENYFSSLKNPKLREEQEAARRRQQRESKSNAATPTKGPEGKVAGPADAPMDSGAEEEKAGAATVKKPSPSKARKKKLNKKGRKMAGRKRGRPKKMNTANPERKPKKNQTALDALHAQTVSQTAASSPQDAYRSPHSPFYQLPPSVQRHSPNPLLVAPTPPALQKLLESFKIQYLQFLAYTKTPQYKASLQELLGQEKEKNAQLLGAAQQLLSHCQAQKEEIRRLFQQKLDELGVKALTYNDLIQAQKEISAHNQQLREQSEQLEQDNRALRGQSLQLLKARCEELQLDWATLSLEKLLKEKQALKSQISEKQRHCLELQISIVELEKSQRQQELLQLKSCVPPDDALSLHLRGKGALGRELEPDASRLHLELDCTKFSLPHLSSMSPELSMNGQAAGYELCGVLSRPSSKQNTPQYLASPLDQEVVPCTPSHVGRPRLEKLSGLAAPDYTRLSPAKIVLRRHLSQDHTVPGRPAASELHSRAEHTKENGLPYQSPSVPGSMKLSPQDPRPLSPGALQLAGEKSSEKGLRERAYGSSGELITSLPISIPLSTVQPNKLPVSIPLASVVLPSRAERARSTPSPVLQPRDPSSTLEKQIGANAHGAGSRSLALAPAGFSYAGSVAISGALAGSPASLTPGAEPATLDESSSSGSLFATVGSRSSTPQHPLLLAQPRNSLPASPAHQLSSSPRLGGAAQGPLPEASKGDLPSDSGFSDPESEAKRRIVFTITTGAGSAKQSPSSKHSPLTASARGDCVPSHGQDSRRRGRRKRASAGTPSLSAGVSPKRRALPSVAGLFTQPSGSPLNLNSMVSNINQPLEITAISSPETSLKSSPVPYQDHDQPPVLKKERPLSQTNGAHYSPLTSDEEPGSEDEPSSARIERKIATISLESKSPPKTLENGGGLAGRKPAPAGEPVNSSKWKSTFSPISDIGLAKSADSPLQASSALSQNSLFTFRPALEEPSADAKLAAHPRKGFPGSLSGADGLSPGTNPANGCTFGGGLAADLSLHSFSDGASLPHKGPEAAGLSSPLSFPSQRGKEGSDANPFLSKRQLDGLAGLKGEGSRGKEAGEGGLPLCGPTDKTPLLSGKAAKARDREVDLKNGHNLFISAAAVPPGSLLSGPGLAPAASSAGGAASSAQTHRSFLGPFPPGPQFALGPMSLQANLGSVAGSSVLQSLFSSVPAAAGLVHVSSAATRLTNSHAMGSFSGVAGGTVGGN
Measured ED50 values are reported for all entries that follow.
Your answer should be a plain number; it is taken to be in nM.

Here is how some molecules turned out for ED50.
| smiles-entry | observed-value |
| --- | --- |
| COc1nc(Nc2cc(S(C)(=O)=O)ccc2N[C@@H](c2cccc(Cl)c2F)c2ncccc2F)nc(OC)n1 | 43 |
| COc1nc(N)nc(Nc2cc(S(N)(=O)=O)ccc2N[C@@H](c2cccc3c2OC(F)(F)O3)c2ncccc2Cl)n1 | 2.9 |
| CS(=O)(=O)c1ccc(N[C@H](c2ccccn2)c2cccc(Cl)c2F)c(Nc2nccc(C(N)=O)n2)c1 | 300 |

Kindly review the next molecule as well.
Q) // map COc1nc(Nc2cc(S(C)(=O)=O)ccc2N[C@@H](c2cccc3c2OC(F)(F)O3)c2ncccc2Cl)nc(OC)n1 to recorded ED50 (system: UniProt:Q8TEK3)
A) 12

====

- assay-text: AUC (0 to 12 hrs) in C57BL/6 mouse at 100 mg/kg, po administered as single dose
- Assay type: ADME, organism-based
- Set-up: dose 100 mg/kg, time < 12 hr, route oral
- test-settings: in vivo
readout-type: AUC(0-t) at 12 h (µM·h)
Your answer should be a plain number; it is taken to be in µM·h.

Q) Quick check: AUC(0-t) at 12 h of COc1nc(Nc2cc(S(C)(=O)=O)ccc2N[C@@H](c2cccc(Cl)c2F)c2ncccc2F)nc(OC)n1 ?
A) 216

====

- measured-target: Histone-lysine N-methyltransferase, H3 lysine-79 specific (Homo sapiens, UniProt Q8TEK3)
- assay-text: Inhibition of 0.05 nM DOT1L (2 to 416 residues) (unknown origin) using biotinylated nucleosome as substrate and [3H]SAM as co-factor preincubated for 30 mins followed by substrate and cofactor addition and measured after 180 mins by scintillation proximity assay
- Sequence (Q8TEK3 whole entry, the tested form may be a part): as the sequence (Q8TEK3 whole entry, looked up, the tested form may be a part) above
readout-type: pIC50
// pIC50 here means minus log10 of the molar concentration (mol/L)

| smiles-entry | pIC50 |
| --- | --- |
| CS(=O)(=O)c1ccc(N[C@H](c2ccccn2)c2cccc(Cl)c2F)c(Nc2nccc(C(N)=O)n2)c1 | 8.68 |
| COc1nc(Nc2cc(S(C)(=O)=O)ccc2N[C@@H](c2cccc3c2OC(F)(F)O3)c2ncccc2Cl)nc(OC)n1 | 9.72 |
| COc1nc(Nc2cc(S(C)(=O)=O)ccc2N[C@@H](c2cccc3c2OC(F)(F)O3)c2ncccc2Cl)nc(N2CCNCC2)n1 | 9.96 |
| COc1nc(N)nc(Nc2cc(S(N)(=O)=O)ccc2N[C@@H](c2cccc3c2OC(F)(F)O3)c2ncccc2Cl)n1 | 9.77 |

Kindly review the next molecule as well.
Q) Quick check: pIC50 of COc1nc(Nc2cc(S(C)(=O)=O)ccc2N[C@@H](c2cccc(Cl)c2F)c2ncccc2F)nc(OC)n1 ?
A) 9.23
